ASSAY_COMMENT: Blood pharmacokinetics after oral dosing (fluorescence HPLC, noncompartmental WinNonlin model)
Format: in vivo, human
CONDITION_LABEL: human, in vivo; single oral 600 mg dose, whole blood, median (range); read-out: MRT (converted)
READOUT_KIND: MRT (days)
One number for each entry, in days.

Recorded MRT for CCN(CC)CCCC(C)Nc1ccnc2cc(Cl)ccc12 (stereo not shown) , please?
24.7

----------
ASSAY_COMMENT: Blood pharmacokinetics after oral dosing (fluorescence HPLC, noncompartmental WinNonlin model)
Type: in vivo, human
CONDITION_LABEL: human, whole blood; single oral 700 mg adjustment dose, median (range)
READOUT_KIND: Vd/F (L)
One number for each entry, in L.

Any idea what its Vd/F is? The molecule is CCN(CC)CCCNc1ccnc2cc(Cl)ccc12 [AQ-13]
6830
